Source of measurements: paper PMC9823934

assayed-target: XIAP-BIR1 (Homo sapiens)
Sequence (P98170 10-99 limits assumed): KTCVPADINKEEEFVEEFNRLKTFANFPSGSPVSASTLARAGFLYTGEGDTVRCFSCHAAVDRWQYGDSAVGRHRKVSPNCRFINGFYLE
method-description: Trp fluorescence binding assay on XIAP-BIR1
outcome-measure: Kd (µM)
Entry rule: numbers only, all in µM.

Problem: Requested read-out: Kd. Entry: O=C1CCCC2=C1C(c1ccc(O)c(O)c1)Nc1ccc(C(=O)c3ccccc3)cc1N2 (stereo not drawn) [4p]
Result: 15.9

Problem: Entry O=C1CCCC2=C1C(c1ccc3c(c1)OC(F)(F)O3)Nc1ccc(C(=O)c3ccccc3)cc1N2 (stereo not drawn) [4q] has what Kd?
Result: 41.8

Problem: Fill in the blank: the reported Kd of O=C1CCCC2=C1C(c1ccccc1)Nc1ccc(C(=O)c3ccccc3)cc1N2 (stereo not drawn) [4d] is ____.
Result: 4.4

Problem: I would be grateful if you could share the reported Kd for O=C1CCCC2=C1C(c1cccs1)Nc1ccc(C(=O)c3ccccc3)cc1N2 (stereo not drawn) [4b] .
Result: 30

* * *

Tested on: MDA-MB-231 cells
method-description: Cell viability assay (PrestoBlue) in MDA-MB-231, with or without TNF
Format: cell-based, human
condition-label: Homo sapiens, MDA-MB-231, single agent, 48 h treatment, read-out: EC50
outcome-measure: pEC50
Entry type: numeric. Quantity: pEC50, the -log10 of concentration in molar units.

Problem: // returns reported pEC50 for input COc1cc(C2Nc3ccc(C(=O)c4ccccc4)cc3NC3=C2C(=O)CCC3)cc([N+](=O)[O-])c1O (stereo not shown)
Result: 4.50

Problem: Any idea what pEC50 was measured for COc1ccc(C2Nc3ccc(C(=O)c4ccccc4)cc3NC3=C2C(=O)CCC3)cc1O (stereo not shown) ?
Result: 4.82

Problem: Which measured pEC50 value corresponds to O=C1CCCC2=C1C(c1ccc(O)c([N+](=O)[O-])c1)Nc1ccc(C(=O)c3ccccc3)cc1N2 (stereo not shown) ?
Result: 4.77

Problem: Param item = O=C1CCCC2=C1C(c1cccc([N+](=O)[O-])c1)Nc1ccc(C(=O)c3ccccc3)cc1N2 (stereo not shown) ; retrieve measured pEC50.
Result: 5.26

Problem: Field request: pEC50 | item: O=C1CCCC2=C1C(c1c[nH]c3ccccc13)Nc1ccc(C(=O)c3ccccc3)cc1N2 (stereo not shown)
Result: 4.94

Problem: Consider the compound shown here: COc1cc(C2Nc3ccc(C(=O)c4ccccc4)cc3NC3=C2C(=O)CCC3)ccc1O (stereo not shown) What is its recorded pEC50?
Result: 5.13

---
Problem: Requested read-out: pEC50. Entry: O=C1CCCC2=C1C(c1ccc3c(c1)OC(F)(F)O3)Nc1ccc(C(=O)c3ccccc3)cc1N2 (stereo not shown)
Result: 4.83

* * *

Recorded EC50 values for a group of compounds are listed next.
Test system: MDA-MB-231 cells
method-description: Cell viability assay (PrestoBlue) in MDA-MB-231, with or without TNF
Format: cell-based, human
condition-label: Homo sapiens, MDA-MB-231, 48 h, MDA-MB-231, single agent, 48 h treatment, read-out: EC50
Give just the number in µM; leave the unit off.

These recorded examples may help you get a feel for the data.
Problem: Using the record for O=C1CCCC2=C1C(c1cccs1)Nc1ccc(C(=O)c3ccccc3)cc1N2 (stereo not shown) [4b] , report its EC50.
Result: 21.9

Problem: What EC50 value was documented for this compound, Cc1ccc(C2Nc3ccc(C(=O)c4ccccc4)cc3NC3=C2C(=O)CCC3)o1 (stereo not shown) [4c] ?
Result: 65

Problem: For the compound COc1ccc(C2Nc3ccc(C(=O)c4ccccc4)cc3NC3=C2C(=O)CCC3)cc1OC (stereo not shown) [4o] , what EC50 is on record?
Result: 13.5

Problem: So what does the record say about EC50 for O=C1CCCC2=C1C(c1ccccc1)Nc1ccc(C(=O)c3ccccc3)cc1N2 (stereo not shown) [4d] ?
Result: 19.6

Problem: Requested read-out: EC50. Entry: O=C1CCCC2=C1C(c1ccc(O)cc1)Nc1ccc(C(=O)c3ccccc3)cc1N2 (stereo not shown) [4j]
Result: 48.2

Problem: Query (compound): O=C1CCCC2=C1C(c1cccc(O)c1)Nc1ccc(C(=O)c3ccccc3)cc1N2 (stereo not shown) [4l] ; field requested: EC50
Result: 18.6

Problem: Report EC50 for Cc1ccc(C2Nc3ccc(C(=O)c4ccccc4)cc3NC3=C2C(=O)CCC3)cc1 (stereo not shown) [4e] please.
Result: 38.9

Problem: Recorded EC50 of O=C1CCCC2=C1C(c1ccc(Cl)cc1)Nc1ccc(C(=O)c3ccccc3)cc1N2 (stereo not shown) [4i] , please.
Result: 25.9

Proceed to the following item.
Problem: If you can, please state the reported EC50 value of COc1ccc(C2Nc3ccc(C(=O)c4ccccc4)cc3NC3=C2C(=O)CCC3)cc1 (stereo not shown) [4g] .
Result: 67.2
